# TEST SYSTEM: T1, truncated wild type EGFR 1-525 (EGFR1 (1-525)-SRGPF-Myc-NMHTG-6His) (human, UniProt P00533 25-525)
# T1 construct: the signal peptide is left out; not shown: Myc tag
# EXPERIMENT NOTES: SPR (Biacore), antibody captured via anti-human Fc, antigen injected
Would you kindly list koff for each of these binders?
Just the number in s⁻¹, nothing appended.

Note to self: koff recorded for Antibody P (AbP) (antibody, V domains shown, Full length IgG1) VH: EVQLQESGPGLVKPSQTLSLTCTVSGYSISHDFAWNWIRQPPGKGLEWMGYISYSGNTRYQPSLKSRITISRDTSKNQFFLKLNSVTAADTATYYCVTASWGLPWWGQGTLVTVSS VL: DIQMTQSPSSMSVSVGDRVTITCHSSQDINMNVGWLQQKPGKSFKGLIYHGAILDDGVPSRFSGSGSGTDYTLTISSLQPEDFATYYCVQYAEFPWTFGGGTKLEIK was 7.67e-05

Note to self: koff recorded for Antibody N (AbN) (antibody, V domains shown, Full length IgG1) VH: EVQLQESGPGLVKPSQTLSLTCTVSGYSIGRDFAWNWIRQPPGKGLEWMGYISYSGNTRYQPSLKSRITISRDTSKNQFFLKLNSVTAADTATYYCVTASRGFPYWGQGTLVTVSS VL: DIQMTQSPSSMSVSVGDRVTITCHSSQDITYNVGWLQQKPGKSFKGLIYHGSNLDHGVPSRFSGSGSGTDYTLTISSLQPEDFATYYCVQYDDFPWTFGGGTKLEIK was 1.71e-05

Note to self: koff recorded for Antibody E (AbE) (antibody, V domains shown, Full length IgG1) VH: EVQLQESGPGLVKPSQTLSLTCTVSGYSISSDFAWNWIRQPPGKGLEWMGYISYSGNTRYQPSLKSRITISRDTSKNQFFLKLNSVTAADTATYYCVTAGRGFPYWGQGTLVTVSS VL: DIQMTQSPSSMSVSVGDRVTITCHSSQDINSNLGWLQQKPGKSFKGLIYHGSNLDHGVPSRFSGSGSGTDYTLTISSLQPEDFATYYCVQYDQFPWTFGGGTKLEIK was 0.00367

Note to self: koff recorded for Antibody L (AbL) (antibody, V domains shown, Full length IgG1) VH: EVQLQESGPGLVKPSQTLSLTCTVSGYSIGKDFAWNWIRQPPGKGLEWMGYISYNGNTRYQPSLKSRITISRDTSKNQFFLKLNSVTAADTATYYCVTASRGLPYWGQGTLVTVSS VL: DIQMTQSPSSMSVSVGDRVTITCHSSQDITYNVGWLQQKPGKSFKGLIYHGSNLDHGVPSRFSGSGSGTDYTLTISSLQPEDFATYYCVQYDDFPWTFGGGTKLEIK was 1.78e-05

Note to self: koff recorded for Antibody O (AbO) (antibody, V domains shown, Full length IgG1; also called Antibody 0) VH: EVQLQESGPGLVKPSQTLSLTCTVSGYSIGKDFAWNWIRQPPGKGLEWMGYISYNGNTRYQPSLKSRITISRDTSKNQFFLKLNSVTAADTATYYCVTASRGFPYWGQGTLVTVSS VL: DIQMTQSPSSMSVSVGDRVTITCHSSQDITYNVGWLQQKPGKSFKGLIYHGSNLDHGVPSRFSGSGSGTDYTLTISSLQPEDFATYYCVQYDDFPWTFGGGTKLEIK was 2.05e-05

These measurements were taken from patent US20150337042A1.
